Organism: Homo sapiens
Experiment: Binding affinity to human HSP90B 5'-FAM-GGGCGGGCCAAAGGGAAGGGG-TAMRA-3' at 1 uM after 3 hrs by HT-FRET assay
ΔTm of 20 °C or higher: Satisfied. Under 20 °C: Not satisfied.

| chem smiles | cat |
| --- | --- |
| CN1CCN(CCCN2C(=O)c3cc(NC[C@@H]4CCCO4)c4c5c(cc(NC[C@H]6CCCO6)c(c35)C2=O)C(=O)N(CCCN2CCN(C)CC2)C4=O)CC1 | Not satisfied |
| CN1CCN(CCCN2C(=O)c3cc(NCC4CCOCC4)c4c5c(cc(NCC6CCOCC6)c(c35)C2=O)C(=O)N(CCCN2CCN(C)CC2)C4=O)CC1 | Not satisfied |
| CN1CCN(CCN2C(=O)c3cc(NCCCN4CCOCC4)c4c5c(cc(NCCCN6CCOCC6)c(c35)C2=O)C(=O)N(CCN2CCN(C)CC2)C4=O)CC1 | Satisfied |
| CN1CCN(CCCN2C(=O)c3cc(NCCCN4CCOCC4)c4c5c(cc(NCCCN6CCOCC6)c(c35)C2=O)C(=O)N(CCCN2CCN(C)CC2)C4=O)CC1 | Satisfied |
| COCCCNc1cc2c3c(c(NCCCOC)cc4c3c1C(=O)N(CCCN1CCN(C)CC1)C4=O)C(=O)N(CCCN1CCN(C)CC1)C2=O | Satisfied |

Each recorded value in this set is attributed to ChEMBL document CHEMBL2434865.
